Data provenance is paper PMC8698672.

# System: Acinetobacter baumannii (Ab)
# PROTOCOL DETAILS: Antibacterial MIC assay (CO-ADD)
# Type: cell-based
# TEST SETTINGS: 18 h, 37 °C, inhibition ≥ 80%
Recorded MIC Ab, one value per entry.
Form entry: value (mg/L) — number only.

{"columns": ["COMPOUND", "MIC Ab / mg/L"],
 "data": [
  ["F[P-](F)(F)(F)(F)F.S=C([S][Au+][c]1ccccc1-c1ccccn1)N(Cc1ccccc1)Cc1ccccc1 [Complex C6, [Au(ppy)(dbdtc)]PF6]", 32]
]}

--- query ---
Asked: What value of MIC Ab has been recorded for this entry: CN(C)C(=S)[S][Au+][c]1ccccc1-c1ccccn1.F[P-](F)(F)(F)(F)F [Complex C2, [Au(ppy)(dmdtc)]PF6]
Given back: 32

----------
Recorded MIC Ec, one value per entry.
# System: Escherichia coli (Ec)
# PROTOCOL DETAILS: Antibacterial MIC assay (CO-ADD)
# Type: cell-based
# TEST SETTINGS: 18 h, 37 °C, inhibition ≥ 80%
Form entry: value (µg/mL) — number only.

# example entries with known answers
{"columns": ["COMPOUND", "MIC Ec (µg/mL)"],
 "data": [
  ["CCN(CC)C(=S)[S][Au+][c]1cc(C)ccc1-c1ccccn1.F[P-](F)(F)(F)(F)F [Complex C3, [Au(tpy)(dedtc)]PF6]", 32],
  ["CN(C)C(=S)[S][Au+][c]1ccccc1-c1ccccn1.F[P-](F)(F)(F)(F)F [Complex C2, [Au(ppy)(dmdtc)]PF6]", 32]
]}

Asked: What value of MIC Ec has been recorded for this entry: Cc1ccc(-c2ccccn2)[c]([Au+][S]C(=S)N(C)C)c1.F[P-](F)(F)(F)(F)F [Complex C1, [Au(tpy)(dmdtc)] PF6]
Given back: 32

----------
# Tested on: Acinetobacter baumannii (Ab)
# PROTOCOL DETAILS: Antibacterial MIC assay (CO-ADD)
# Assay type: cell-based
# TEST SETTINGS: 18 h, 37 °C, inhibition ≥ 80%
Recorded MIC Ab, one value per entry.

# example entries with known answers
{"columns": ["COMPOUND", "MIC Ab"],
 "data": [
  ["CCN(CC)C(=S)[S][Au+][c]1cc(C)ccc1-c1ccccn1.F[P-](F)(F)(F)(F)F [Complex C3, [Au(tpy)(dedtc)]PF6]", ">32 µg/mL"],
  ["Cc1ccc2[c](c1)[Au-]1([S]C(N(Cc3ccccc3)Cc3ccccc3)=[S+]1)[n+]1ccccc1-2.F[P-](F)(F)(F)(F)F (stereo not drawn) [Complex C5, [Au(tpy)(dbdtc)]PF6]", ">32 µg/mL"]
]}

--- query ---
Asked: What value of MIC Ab has been recorded for this entry: Cc1ccc(-c2ccccn2)[c]([Au+][S]C(=S)N(C)C)c1.F[P-](F)(F)(F)(F)F [Complex C1, [Au(tpy)(dmdtc)] PF6]
Given back: >32 µg/mL
